studySystem: GLP-1 Receptor (Homo sapiens)
Construct: host or cells: HEK293/GLP1R/CRE-LUC (HEK293/CRE-Luc stably expressing the GLP-1 receptor)
runDescription: GLP-1R agonist cAMP stimulation assay (HEK293/GLP1R/CRE-LUC cells, Cisbio cAMP dynamic 2 kit)
Format: cell-based
assayConditions: HEK293/CRE-Luc cell line stably expressing the GLP-1 Receptor; 1000 cells/well; 30 min at 37° C.; 0.5 mM IBMX, 0.1% BSA; read-out: GLP1R cAMP Stimulation DR: EC50
measurementType: EC50 (nM)

Consider the following illustrative entries.
molecule: O=C(O)/C=C/c1nnc(CN2CCC(c3cccc(OCc4ccc(Cl)cc4F)n3)CC2)n1CC1CCC1
studySystem: GLP-1 Receptor (Homo sapiens)
EC50, nM: 2.7
//
molecule: Cc1cc(-c2nnc(C(F)(F)F)[nH]2)cnc1CN1CCC(c2cccc3c2OC(C)(c2ccc(Cl)cn2)O3)CC1 (centres unmarked)
studySystem: GLP-1 Receptor (Homo sapiens)
EC50, nM: 15
//
molecule: CC#CCn1c(/C=C/C(=O)O)cnc1CN1CCC(c2cccc3c2OC(C)(c2ccc(Cl)cc2F)O3)CC1 (centres unmarked)
studySystem: GLP-1 Receptor (Homo sapiens)
EC50, nM: 0.11
//
molecule: CCn1cncc1Cn1c(/C=C/C(=O)O)cnc1CN1CCC(c2cccc(OCc3ccc(Cl)cc3F)n2)CC1
studySystem: GLP-1 Receptor (Homo sapiens)
EC50, nM: 0.0032
//
molecule: O=C(O)CCc1cnc(CN2CCC(c3cccc(OCc4ccc(Cl)cc4F)n3)CC2)n1C[C@@H]1CCO1 [Compound 102a]
studySystem: GLP-1 Receptor (Homo sapiens)
EC50, nM: 1.6
//
molecule: CCn1cncc1Cn1c(CCC(=O)O)cnc1CN1CCC(c2cccc(OCc3ccc(Cl)cc3F)n2)CC1
studySystem: GLP-1 Receptor (Homo sapiens)
EC50, nM: 0.023
//
molecule: C/C(=C\c1cnc(CN2CCC(c3cccc4c3O[C@](C)(c3ccc(Cl)cc3F)O4)CC2)n1C[C@@H]1CCO1)C(=O)O (single isomer, unassigned) [Compound 131b]
studySystem: GLP-1 Receptor (Homo sapiens)
EC50, nM: 8.7
//
molecule: CC1(c2ccc(Cl)cc2F)Oc2cccc(C3CCN(Cc4ncc(/C=C/C(=O)O)n4C[C@@H]4CCOC4)CC3)c2O1 (some centres unmarked)
studySystem: GLP-1 Receptor (Homo sapiens)
EC50, nM: 0.086

P = Cn1c(-c2cc(=O)[nH]o2)cnc1CN1CCC(c2cccc(OCc3ccc(Cl)cc3F)n2)CC1
Q = C[C@]1(c2ccc(Cl)cc2F)Oc2cccc(C3CCN(Cc4ncc(/C=C/C(=O)O)n4CCOC(F)(F)F)CC3)c2O1
R = CC1(C)C[C@@H](Cn2c(/C=C/C(=O)O)cnc2CN2CCC(c3cccc4c3OC(C)(c3ccc(Cl)cc3F)O4)CC2)CO1 (single isomer, unassigned) [Compound 171a]
Incoming: // ranking: key=EC50, reverse=True Provide the labels, sequenced as the question asks.
Outgoing: R, P, Q
(R: 10 nM, P: 1.6 nM, Q: 0.16 nM)

1 = O=C(O)/C=C/c1cnc(CN2CCC(c3cccc4c3OC[C@@H](c3ccc(Cl)cc3)O4)CC2)n1Cc1ccccc1 [Compound 210a]
2 = CCn1cncc1Cn1c(/C=C/C(=O)O)nnc1CN1CCC(c2cccc3c2OC(C)(c2ccc(Cl)cc2F)O3)CC1 (centres unmarked)
Incoming: // pick larger EC50 from pair: 1 vs 2 Record your answer as the label of the chosen record.
Outgoing: 1

---

studySystem: GLP-1 Receptor (Homo sapiens, UniProt P43220)
Sequence (P43220 24-463, species assumed): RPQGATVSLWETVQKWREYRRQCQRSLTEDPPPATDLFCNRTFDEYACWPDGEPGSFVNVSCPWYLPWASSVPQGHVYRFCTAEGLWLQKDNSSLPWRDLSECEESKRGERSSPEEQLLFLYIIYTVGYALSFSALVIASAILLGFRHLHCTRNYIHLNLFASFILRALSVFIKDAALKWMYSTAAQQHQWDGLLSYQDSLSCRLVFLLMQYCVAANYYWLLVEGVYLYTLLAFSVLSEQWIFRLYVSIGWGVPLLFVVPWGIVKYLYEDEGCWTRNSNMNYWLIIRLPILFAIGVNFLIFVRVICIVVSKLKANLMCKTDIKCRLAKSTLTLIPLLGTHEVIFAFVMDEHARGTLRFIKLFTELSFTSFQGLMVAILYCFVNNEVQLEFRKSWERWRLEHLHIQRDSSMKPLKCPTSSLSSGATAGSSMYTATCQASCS
runDescription: GLP-1R agonist cAMP stimulation assay (HEK293/GLP1R/CRE-LUC cells, Cisbio cAMP dynamic 2 kit);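 also: compounds tested in half-log serial dilution, cAMP detected with cAMP-d2 and anti-cAMP cryptate antibody reagents after 1 h at room temperature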
assayConditions: HEK293/CRE-Luc cell line stably expressing the GLP-1 Receptor; 1000 cells/well; 30 min at 37° C.; 0.5 mM IBMX, 0.1% BSA; read-out: GLP1R cAMP Stimulation DR: EC50
pEC50: −log10 of the molar value.
measurementType: pEC50

1 = C[C@]1(c2ccc(Cl)cc2F)Oc2cccc(C3CCN(Cc4ncc(/C=C/C(=O)O)n4C[C@H]4CCS4(=O)=O)CC3)c2O1 (single isomer, unassigned) [Compound 173b]
2 = O=c1[nH]c(-c2cnc(CN3CCC(c4cccc(OCc5ccc(Cl)cc5F)n4)CC3)n2C[C@@H]2CCO2)no1 [Compound 249a]
Incoming: For the pair 1 and 2 , which member has the lower pEC50 number? Record your answer as the label of the chosen record.
Outgoing: 2

---

studySystem: UniProt P43220
runDescription: GLP-1R agonist cAMP stimulation assay (HEK293/GLP1R/CRE-LUC cells, Cisbio cAMP dynamic 2 kit)
assayConditions: HEK293/CRE-Luc cell line stably expressing the GLP-1 Receptor; 1000 cells/well; 30 min at 37° C.; 0.5 mM IBMX, 0.1% BSA; read-out: GLP1R cAMP Stimulation DR: EC50
measurementType: EC50 (nM)

molecule: CC1(c2ccc(Cl)cc2F)Oc2cccc(C3CCN(Cc4ncc(/C=C/C(=O)O)n4CC4(C#N)CC4)CC3)c2O1 (stereo not shown) [Compound 192]
measurementType: EC50
unitInfo: nM
val: 0.073

molecule: COc1cccc(Cn2c(/C=C/C(=O)O)cnc2CN2CCC(c3cccc4c3OC(C)(c3ccc(Cl)cc3F)O4)CC2)c1 (stereo not shown) [Compound 149]
measurementType: EC50
unitInfo: nM
val: 0.12

molecule: O=C(O)/C=C/c1cnc(CN2CCC(c3cccc4c3OC[C@@H](c3ccc(Cl)cc3)O4)CC2)n1Cc1ncco1 [Compound 186a]
measurementType: EC50
unitInfo: nM
val: 0.41

molecule: O=C(O)/C(F)=C/c1cnc(CN2CCC(c3cccc(OCc4ccc(Cl)cc4F)n3)CC2)n1C[C@@H]1CCO1 [Compound 215a]
measurementType: EC50
unitInfo: nM
val: 55

molecule: COCCn1c(/C=C/C(=O)O)cnc1CN1CCC(c2cccc3c2OC(C)(c2ccc(Cl)cc2F)O3)CC1 (stereo not shown) [Compound 141]
measurementType: EC50
unitInfo: nM
val: 0.012

a = COCCn1c(CN2CCC(c3cccc(OCc4ccc(Cl)cc4F)n3)CC2)nnc1C(C)=CC(=O)O [Compound 235]
b = Cc1cc(C(=O)O)cnc1CN1CCC(c2cccc(OCc3ccc(Cl)cc3F)n2)CC1 [Compound 129]
Incoming: // pick larger EC50 from pair: a vs b Record your answer as the label of the chosen record.
Outgoing: b
(b: 1500 nM, a: 10 nM)

P = COCCc1cc(-c2nnc(C(F)(F)F)[nH]2)cnc1CN1CCC(c2cccc3c2O[C@@](C)(c2ccc(Cl)cc2F)O3)CC1 [Compound 259]
Q = Cn1c(/C=C/C(=O)O)cnc1CN1CCC(c2cccc(OCc3ccc(Cl)cc3F)n2)CC1 [Compound 104]
R = O=C(O)/C=C/c1ccc(CN2CCC(c3cccc(OCc4ccc(Cl)cc4F)n3)CC2)nc1 [Compound 123]
S = CN(CCn1c(/C=C/C(=O)O)cnc1CN1CCC(c2cccc3c2OC(C)(c2ccc(Cl)cc2F)O3)CC1)S(C)(=O)=O (stereo not shown) [Compound 176]
T = Cc1ncsc1Cn1c(/C=C/C(=O)O)cnc1CN1CCC(c2cccc3c2OC(C)(c2ccc(Cl)cc2F)O3)CC1 (stereo not shown) [Compound 189]
Incoming: Endpoint returns the given molecules ordered by ascending EC50. Provide the labels, sequenced as the question asks.
Outgoing: T, S, P, Q, R

I = Cc1cc(-c2nnc(C(F)(F)F)[nH]2)cnc1CN1CCC(c2cccc3c2OC(C)(c2ccc(F)cc2F)O3)CC1 (stereo not shown) [Compound 262]
II = CC1(c2ccc(Cl)cc2F)Oc2cccc(C3CCN(Cc4ncc(/C=C/C(=O)O)n4CC4CC4)CC3)c2O1 (stereo not shown) [Compound 162]
III = Cc1nocc1Cn1c(/C=C/C(=O)O)cnc1CN1CCC(c2cccc3c2OC(C)(c2ccc(Cl)cc2F)O3)CC1 (stereo not shown) [Compound 204]
IV = Fc1cc(Cl)ccc1COc1cccc(C2CCN(Cc3ccc(-c4nn[nH]n4)cn3)CC2)n1 [Compound 127]
Incoming: Endpoint returns the given molecules ordered by ascending EC50. Provide the labels, sequenced as the question asks.
Outgoing: III, II, I, IV
(III: 0.012 nM, II: 0.14 nM, I: 3 nM, IV: 147 nM)

a = CCn1cncc1Cn1c(CCC(=O)O)cnc1CN1CCC(c2cccc3c2OC[C@@H](c2ccc(Cl)cc2)O3)CC1 [Compound 245]
b = Cc1cc(-c2nnc(C(F)(F)F)[nH]2)cnc1CN1CCC(c2cccc3c2O[C@@](C)(c2ccc(C#N)cc2F)O3)CC1 [Compound 286]
Incoming: // pick larger EC50 from pair: a vs b Record your answer as the label of the chosen record.
Outgoing: b
(b: 1.38 nM, a: 0.15 nM)

I = CC1(c2ccc(Cl)cc2F)Oc2cccc(C3CCN(Cc4ncc(/C=C/C(=O)O)n4[C@@H]4CCOC4)CC3)c2O1 (stereo partly shown) [Compound 163]
II = CC1(c2ccc(Cl)cc2F)Oc2cccc(C3CCN(Cc4ncc(/C=C/C(=O)O)n4C[C@@H]4CCCO4)CC3)c2O1 (stereo partly shown) [Compound 140a]
III = CCn1cncc1Cn1c(/C=C/C(=O)O)cnc1CN1CCC(c2cccc3c2O[C@](C)(c2ccc(Cl)cc2F)O3)CC1 [Compound 139b]
IV = CC(C)OCCn1c(/C=C/C(=O)O)cnc1CN1CCC(c2cccc3c2OC(C)(c2ccc(Cl)cc2F)O3)CC1 (stereo not shown) [Compound 158]
Incoming: // ranking: key=EC50, reverse=True Provide the labels, sequenced as the question asks.
Outgoing: III, I, II, IV

A = C/C(=C\c1nnc(CN2CCC(c3cccc4c3OC(C)(c3ccc(Cl)cc3F)O4)CC2)n1C[C@@H]1CCO1)C(=O)O (stereo partly shown) [Compound 137a]
B = CCn1cncc1Cn1c(/C=C(\C)C(=O)O)cnc1CN1CCC(c2cccc(OCc3ccc(Cl)cn3)n2)CC1 [Compound 220]
Incoming: // pick larger EC50 from pair: A vs B Record your answer as the label of the chosen record.
Outgoing: A
(A: 0.3 nM, B: 0.11 nM)

A = CC1(c2ccc(Cl)cc2F)Oc2cccc(C3CCN(Cc4ncc(CCC(=O)O)n4CC4CCS4(=O)=O)CC3)c2O1 (stereo not shown) [Compound 240]
B = COCCCn1c(/C=C/C(=O)O)cnc1CN1CCC(c2cccc3c2OC(C)(c2ccc(Cl)cc2F)O3)CC1 (stereo not shown) [Compound 195]
Incoming: // pick larger EC50 from pair: A vs B Record your answer as the label of the chosen record.
Outgoing: A
